Measured values drawn from patent US5175151A for this set.

- Assay System: cGMP phosphodiesterase (cGMP-PDE) (Bos taurus, UniProt Q28156)
Readout Kind: pIC50
Recall that pIC50 is obtained by taking minus log10 of the concentration measured in molar.

>>> val("COc1cc(=O)c2ccc(OC)c(C)c2o1")
4.89
>>> val("CCCCCCn1c(OC)cc(=O)c2cc(C)ccc21")
6.22
>>> val("CCCCCCCn1c(OC)cc(=O)c2ccccc21")
5.23
>>> val("COc1cc(=O)c2ccccc2n1Cc1ccccc1")
5.59

Enter reported pIC50 observed with cGMP phosphodiesterase (cGMP-PDE) (Bos taurus, UniProt Q28156) for `COc1cc(=O)c2cc(C)ccc2n1Cc1ccccc1`
5.22

Enter reported pIC50 observed with cGMP phosphodiesterase (cGMP-PDE) (Bos taurus, UniProt Q28156) for `CCCCCCn1c(OC)c(C(=O)OCC)c(=O)c2ccccc21`
4.85
